Data origin, for the record: patent US11530186B2

- measured-target: β-catenin/Tcf protein-protein interaction (Homo sapiens)
- Construct: Wild-type β-catenin (residues 138-781) were cloned into a pET-28b vector; 6×histidine (C); made in house; host or cells: E. coli BL21 DE3
- Sequence (P35222 138-781): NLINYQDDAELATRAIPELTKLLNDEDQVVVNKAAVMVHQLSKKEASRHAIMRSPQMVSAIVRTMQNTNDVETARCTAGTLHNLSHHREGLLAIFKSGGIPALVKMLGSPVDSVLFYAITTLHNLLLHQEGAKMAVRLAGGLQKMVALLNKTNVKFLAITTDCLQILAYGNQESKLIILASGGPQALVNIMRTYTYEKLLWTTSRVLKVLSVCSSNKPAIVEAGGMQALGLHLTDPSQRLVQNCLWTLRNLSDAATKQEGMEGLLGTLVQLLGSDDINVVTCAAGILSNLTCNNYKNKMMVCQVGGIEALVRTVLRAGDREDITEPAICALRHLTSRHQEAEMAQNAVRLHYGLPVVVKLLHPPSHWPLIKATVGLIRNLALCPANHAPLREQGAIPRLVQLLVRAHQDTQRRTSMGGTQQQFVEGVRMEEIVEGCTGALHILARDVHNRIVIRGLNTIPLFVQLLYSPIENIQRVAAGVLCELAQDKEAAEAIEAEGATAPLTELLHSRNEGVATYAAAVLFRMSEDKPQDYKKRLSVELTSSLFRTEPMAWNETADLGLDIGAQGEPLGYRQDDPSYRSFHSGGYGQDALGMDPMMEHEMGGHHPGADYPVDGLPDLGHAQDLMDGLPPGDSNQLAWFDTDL
- method-notes: FP competitive inhibition assay
- Format: binding
- condition-context: Assay 2, mean ± SD (n = 3), read-out: Ki ± SD, Assay 2
outcome-measure: Ki (µM)
Answers are plain numbers, in µM.

Worked examples follow.
COc1ccc2sc(CCc3c(CCc4ccc(Cl)cc4)c4cc(C(=O)NCc5ccncn5)ccc4n3CCc3nn[nH]n3)nc2c1 [Compound 57] ... 2.8
COc1ccc2sc(CCc3c(CCc4ccc(Cl)cc4)c4cc(C(=O)NCc5ccccc5N(C)C)ccc4n3CCc3nn[nH]n3)nc2c1 [Compound 54] ... 3

From here, focus on the item given below.
# lookup: Ki of COc1ccc2sc(CCc3c(CCc4ccc(Cl)cc4)c4cc(C(=O)NCC5CCOCC5)ccc4n3CCc3nn[nH]n3)nc2c1 [Compound 64]
9.5
